target.system: human CB1 receptor (Homo sapiens, UniProt P21554)
Sequence (P21554 whole entry): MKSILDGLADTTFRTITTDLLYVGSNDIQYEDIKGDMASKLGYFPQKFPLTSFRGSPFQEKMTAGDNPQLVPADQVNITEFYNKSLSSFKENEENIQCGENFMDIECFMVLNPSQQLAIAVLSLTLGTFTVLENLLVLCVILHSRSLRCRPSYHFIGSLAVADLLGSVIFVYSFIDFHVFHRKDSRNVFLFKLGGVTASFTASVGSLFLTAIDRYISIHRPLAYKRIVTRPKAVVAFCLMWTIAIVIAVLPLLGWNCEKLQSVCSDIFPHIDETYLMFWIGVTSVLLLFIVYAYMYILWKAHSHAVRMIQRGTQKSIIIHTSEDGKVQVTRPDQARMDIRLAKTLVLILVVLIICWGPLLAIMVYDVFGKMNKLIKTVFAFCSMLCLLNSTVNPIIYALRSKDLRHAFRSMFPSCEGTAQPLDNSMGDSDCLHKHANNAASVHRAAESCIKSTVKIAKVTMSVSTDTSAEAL
protocol: AequoScreen CB1 assay (intracellular Ca2+ release, CHO-K1 cells, apoaequorin/Gα16)
test.conditions: Compound 1 vs Compound 2 = ADB-4en-5’Br-PINACA; Brown-Forsythe and Welch ANOVA
For each entry below, report its Efficacy (Emax) Mean Diff value.
API note: the answer field is a bare number with no unit suffix.

QUERY: # return recorded Efficacy (Emax) Mean Diff for input CC(C)(C)C(NC(=O)c1n[nH]c2ccc(Br)cc12)C(N)=O (stereo not shown) [ADB-5′Br-INACA]
RESULT: -0.21

QUERY: # return recorded Efficacy (Emax) Mean Diff for input CCCCCn1nc(C(=O)NC(C(N)=O)C(C)(C)C)c2cc(Br)ccc21 (stereo not shown) [ADB-5′Br-PINACA]
RESULT: -3.10

QUERY: # return recorded Efficacy (Emax) Mean Diff for input CC(C)(C)C(NC(=O)c1nn(Cc2ccc(F)cc2)c2ccc(Br)cc12)C(N)=O (stereo not shown) [ADB-5′Br-FUBINACA]
RESULT: 1.04

QUERY: # return recorded Efficacy (Emax) Mean Diff for input CCCCn1nc(C(=O)NC(C(N)=O)C(C)(C)C)c2cc(Br)ccc21 (stereo not shown) [ADB-5′Br-BUTINACA]
RESULT: -1.26

###

target.system: human CB1 receptor (Homo sapiens, UniProt P21554)
protocol: AequoScreen CB1 assay (intracellular Ca2+ release, CHO-K1 cells, apoaequorin/Gα16)
test.conditions: Compound 1 vs Compound 2 = MDMB-5’Cl-BUTINACA; Brown-Forsythe and Welch ANOVA
Please respond with 1 when measured Efficacy (Emax) Mean Diff is strictly beneath 2, and with 0 in all other cases.

QUERY: API: query returns whether the molecule falls strictly under 2 in Efficacy (Emax) Mean Diff. Query: CCCCn1nc(C(=O)NC(C(=O)OC)C(C)C)c2cc(Cl)ccc21 (centres unmarked)
RESULT: 1

QUERY: API: query returns whether the molecule falls strictly under 2 in Efficacy (Emax) Mean Diff. Query: CCCCn1nc(C(=O)NC(C(=O)OC)C(C)(C)C)c2cc(Br)ccc21 (centres unmarked)
RESULT: 0

QUERY: API: query returns whether the molecule falls strictly under 2 in Efficacy (Emax) Mean Diff. Query: CCCCn1nc(C(=O)NC(C(N)=O)C(C)(C)C)c2cc(Cl)ccc21 (centres unmarked)
RESULT: 0

QUERY: API: query returns whether the molecule falls strictly under 2 in Efficacy (Emax) Mean Diff. Query: CCCCn1nc(C(=O)NC(C(N)=O)C(C)C)c2cc(Cl)ccc21 (centres unmarked)
RESULT: 0

QUERY: API: query returns whether the molecule falls strictly under 2 in Efficacy (Emax) Mean Diff. Query: CCCCn1nc(C(=O)NC(C(=O)OC)C(C)(C)C)c2cc(F)ccc21 (centres unmarked)
RESULT: 1

###

target.system: human CB1 receptor (Homo sapiens, UniProt P21554)
protocol: AequoScreen CB1 assay (intracellular Ca2+ release, CHO-K1 cells, apoaequorin/Gα16)
For each entry below, report its pEC50 value.
Remember, pEC50 is on a log scale: it is -log10 of the molar concentration.

QUERY: Look up human CB1 receptor (Homo sapiens, UniProt P21554) data: pEC50 of CCCCn1nc(C(=O)NC(C(N)=O)C(C)C)c2cc(F)ccc21 (centres unmarked) , then report it.
RESULT: 7.73

QUERY: Look up human CB1 receptor (Homo sapiens, UniProt P21554) data: pEC50 of COC(=O)C(NC(=O)c1n[nH]c2ccccc12)C(C)(C)C (centres unmarked) [MDMB-INACA, reference compound] , then report it.
RESULT: 5.43

QUERY: Look up human CB1 receptor (Homo sapiens, UniProt P21554) data: pEC50 of CCCCn1nc(C(=O)NC(C(=O)OC)C(C)C)c2cc(Br)ccc21 (centres unmarked) , then report it.
RESULT: 6.59

QUERY: Look up human CB1 receptor (Homo sapiens, UniProt P21554) data: pEC50 of CCCCn1nc(C(=O)NC(C(N)=O)C(C)(C)C)c2cc(Br)ccc21 (centres unmarked) , then report it.
RESULT: 7.74

QUERY: Look up human CB1 receptor (Homo sapiens, UniProt P21554) data: pEC50 of CCCCn1nc(C(=O)NC(C(N)=O)C(C)C)c2cc(Cl)ccc21 (centres unmarked) , then report it.
RESULT: 7.24

QUERY: Look up human CB1 receptor (Homo sapiens, UniProt P21554) data: pEC50 of CCCCn1nc(C(=O)NC(C(N)=O)C(C)(C)C)c2cc(F)ccc21 (centres unmarked) , then report it.
RESULT: 7.84

QUERY: Look up human CB1 receptor (Homo sapiens, UniProt P21554) data: pEC50 of CC(C)(C)C(NC(=O)c1nn(Cc2ccc(F)cc2)c2ccc(Br)cc12)C(N)=O (centres unmarked) , then report it.
RESULT: 7.38

QUERY: Look up human CB1 receptor (Homo sapiens, UniProt P21554) data: pEC50 of CCCCn1nc(C(=O)NC(C(=O)OC)C(C)C)c2cc(F)ccc21 (centres unmarked) , then report it.
RESULT: 7.58

QUERY: Look up human CB1 receptor (Homo sapiens, UniProt P21554) data: pEC50 of CCCCn1nc(C(=O)NC(C(N)=O)C(C)(C)C)c2cc(Cl)ccc21 (centres unmarked) , then report it.
RESULT: 7.52

QUERY: Look up human CB1 receptor (Homo sapiens, UniProt P21554) data: pEC50 of CCCCCn1nc(C(=O)NC(C(N)=O)C(C)(C)C)c2cc(Br)ccc21 (centres unmarked) , then report it.
RESULT: 7.70

QUERY: Look up human CB1 receptor (Homo sapiens, UniProt P21554) data: pEC50 of CCCCn1nc(C(=O)NC(C(=O)OC)C(C)(C)C)c2cc(Cl)ccc21 (centres unmarked) , then report it.
RESULT: 7.97

QUERY: Look up human CB1 receptor (Homo sapiens, UniProt P21554) data: pEC50 of C=CCCCn1nc(C(=O)NC(C(N)=O)C(C)(C)C)c2cc(Br)ccc21 (centres unmarked) , then report it.
RESULT: 7.85

QUERY: Look up human CB1 receptor (Homo sapiens, UniProt P21554) data: pEC50 of CCCCn1nc(C(=O)NC(C(N)=O)C(C)(C)C)c2ccccc21 (centres unmarked) [ADB-BUTINACA, reference compound] , then report it.
RESULT: 7.67

QUERY: Look up human CB1 receptor (Homo sapiens, UniProt P21554) data: pEC50 of C=CCCCn1nc(C(=O)NC(C(=O)OC)C(C)(C)C)c2cc(Br)ccc21 (centres unmarked) , then report it.
RESULT: 7.35

QUERY: Look up human CB1 receptor (Homo sapiens, UniProt P21554) data: pEC50 of CCCCn1nc(C(=O)NC(C(N)=O)C(C)C)c2cc(Br)ccc21 (centres unmarked) , then report it.
RESULT: 7.35

QUERY: Look up human CB1 receptor (Homo sapiens, UniProt P21554) data: pEC50 of C=CCCCn1nc(C(=O)NC(C(=O)OC)C(C)(C)C)c2ccccc21 (centres unmarked) [MDMB-4en-PINACA, reference compound] , then report it.
RESULT: 7.75

QUERY: Look up human CB1 receptor (Homo sapiens, UniProt P21554) data: pEC50 of CCCCn1nc(C(=O)NC(C(=O)OC)C(C)(C)C)c2cc(Br)ccc21 (centres unmarked) , then report it.
RESULT: 7.37

###

target.system: human CB1 receptor (Homo sapiens, UniProt P21554)
protocol: AequoScreen CB1 assay (intracellular Ca2+ release, CHO-K1 cells, apoaequorin/Gα16)
test.conditions: Compound 1 vs Compound 2 = ADB-5’Cl-BUTINACA; Brown-Forsythe and Welch ANOVA
assay.endpoint: Efficacy (Emax) Mean Diff
API note: the answer field is a bare number with no unit suffix.

QUERY: # return recorded Efficacy (Emax) Mean Diff for input CCCCn1nc(C(=O)NC(C(=O)OC)C(C)C)c2cc(Cl)ccc21 (stereo not shown)
RESULT: -3.40

QUERY: # return recorded Efficacy (Emax) Mean Diff for input CCCCn1nc(C(=O)NC(C(N)=O)C(C)(C)C)c2cc(F)ccc21 (stereo not shown)
RESULT: 0.36

QUERY: # return recorded Efficacy (Emax) Mean Diff for input CCCCn1nc(C(=O)NC(C(N)=O)C(C)C)c2cc(Cl)ccc21 (stereo not shown)
RESULT: -0.67

QUERY: # return recorded Efficacy (Emax) Mean Diff for input CCCCn1nc(C(=O)NC(C(N)=O)C(C)(C)C)c2cc(Br)ccc21 (stereo not shown)
RESULT: -2.84

###

target.system: human CB1 receptor (Homo sapiens, UniProt P21554)
protocol: AequoScreen CB1 assay (intracellular Ca2+ release, CHO-K1 cells, apoaequorin/Gα16)
test.conditions: CHO-K1, read-out: Efficacy (% of JWH-018) Emax
assay.endpoint: Emax (%)
Please reply with the bare figure in % and do not write the unit itself.

QUERY: # return recorded Emax for input CCCCn1nc(C(=O)NC(C(=O)OC)C(C)(C)C)c2cc(Br)ccc21 (centres unmarked) [MDMB-5′Br-BUTINACA]
RESULT: 114

QUERY: # return recorded Emax for input CCCCn1nc(C(=O)NC(C(N)=O)C(C)C)c2cc(F)ccc21 (centres unmarked) [AB-5′F-BUTINACA]
RESULT: 107

QUERY: # return recorded Emax for input CCCCn1nc(C(=O)NC(C(=O)OC)C(C)C)c2cc(F)ccc21 (centres unmarked) [MMB-5′F-BUTINACA]
RESULT: 107

QUERY: # return recorded Emax for input CCCCn1nc(C(=O)NC(C(=O)OC)C(C)C)c2cc(Cl)ccc21 (centres unmarked) [MMB-5′Cl-BUTINACA]
RESULT: 109

QUERY: # return recorded Emax for input CCCCn1nc(C(=O)NC(C(=O)OC)C(C)(C)C)c2cc(Cl)ccc21 (centres unmarked) [MDMB-5′Cl-BUTINACA]
RESULT: 110

QUERY: # return recorded Emax for input C=CCCCn1nc(C(=O)NC(C(N)=O)C(C)(C)C)c2cc(Br)ccc21 (centres unmarked) [ADB-4en-5′Br-PINACA]
RESULT: 111

QUERY: # return recorded Emax for input CCCCn1nc(C(=O)NC(C(=O)OC)C(C)(C)C)c2ccccc21 (centres unmarked) [MDMB-BUTINACA, reference compound]
RESULT: 121

QUERY: # return recorded Emax for input COC(=O)C(NC(=O)c1n[nH]c2ccccc12)C(C)(C)C (centres unmarked) [MDMB-INACA, reference compound]
RESULT: 112

QUERY: # return recorded Emax for input COC(=O)C(NC(=O)c1n[nH]c2ccc(Br)cc12)C(C)(C)C (centres unmarked) [MDMB-5′Br-INACA]
RESULT: 110

QUERY: # return recorded Emax for input CCCCn1nc(C(=O)NC(C(N)=O)C(C)C)c2cc(Br)ccc21 (centres unmarked) [AB-5′Br-BUTINACA]
RESULT: 115

QUERY: # return recorded Emax for input CC(C)(C)C(NC(=O)c1nn(Cc2ccc(F)cc2)c2ccc(Br)cc12)C(N)=O (centres unmarked) [ADB-5′Br-FUBINACA]
RESULT: 112

QUERY: # return recorded Emax for input CCCCn1nc(C(=O)NC(C(N)=O)C(C)(C)C)c2cc(F)ccc21 (centres unmarked) [ADB-5′F-BUTINACA]
RESULT: 113

QUERY: # return recorded Emax for input C=CCCCn1nc(C(=O)NC(C(=O)OC)C(C)(C)C)c2ccccc21 (centres unmarked) [MDMB-4en-PINACA, reference compound]
RESULT: 109

QUERY: # return recorded Emax for input COC(=O)C(NC(=O)c1n[nH]c2ccc(C)cc12)C(C)(C)C (centres unmarked) [MDMB-5′Me-INACA]
RESULT: 113

QUERY: # return recorded Emax for input CCCCn1nc(C(=O)NC(C(N)=O)C(C)C)c2cc(Cl)ccc21 (centres unmarked) [AB-5′Cl-BUTINACA]
RESULT: 112

QUERY: # return recorded Emax for input CCCCn1nc(C(=O)NC(C(=O)OC)C(C)C)c2cc(Br)ccc21 (centres unmarked) [MMB-5′Br-BUTINACA]
RESULT: 105

QUERY: # return recorded Emax for input CCCCCn1nc(C(=O)NC(C(N)=O)C(C)(C)C)c2cc(Br)ccc21 (centres unmarked) [ADB-5′Br-PINACA]
RESULT: 108

QUERY: # return recorded Emax for input CCCCn1nc(C(=O)NC(C(=O)OC)C(C)(C)C)c2cc(F)ccc21 (centres unmarked) [MDMB-5′F-BUTINACA]
RESULT: 111

QUERY: # return recorded Emax for input CCCCn1nc(C(=O)NC(C(N)=O)C(C)(C)C)c2cc(Cl)ccc21 (centres unmarked) [ADB-5′Cl-BUTINACA]
RESULT: 113

QUERY: # return recorded Emax for input C=CCCCn1nc(C(=O)NC(C(=O)OC)C(C)(C)C)c2cc(Br)ccc21 (centres unmarked) [MDMB-4en-5′Br-PINACA]
RESULT: 120

QUERY: # return recorded Emax for input CCCCn1nc(C(=O)NC(C(N)=O)C(C)(C)C)c2ccccc21 (centres unmarked) [ADB-BUTINACA, reference compound]
RESULT: 126

QUERY: # return recorded Emax for input CC(C)(C)C(NC(=O)c1n[nH]c2ccc(Br)cc12)C(N)=O (centres unmarked) [ADB-5′Br-INACA]
RESULT: 111

QUERY: # return recorded Emax for input CCCCn1nc(C(=O)NC(C(N)=O)C(C)(C)C)c2cc(Br)ccc21 (centres unmarked) [ADB-5′Br-BUTINACA]
RESULT: 110
